B1: HDV Ribozyme (parent)
chain: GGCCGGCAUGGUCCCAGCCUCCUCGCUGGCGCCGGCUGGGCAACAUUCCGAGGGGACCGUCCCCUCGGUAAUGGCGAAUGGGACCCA

variants of: B1; test: self-cleavage, relative activity (ratio to wild type); higher = more cleavage; co-transcriptional
# self-cleavage binned as lo = under 0.2, med = from 0.2 up to 0.6, hi = 0.6 and over

Example cases with answers are listed next.
[[record]]
mutation_notation = "C4U A43C"
answer_label = "med"

[[record]]
mutation_notation = "C13A A45C"
answer_label = "lo"

[[record]]
mutation_notation = "G28C G50U"
answer_label = "lo"

[[record]]
mutation_notation = "G5U G35C"
answer_label = "lo"

[[record]]
mutation_notation = "C33G G82U"
answer_label = "lo"


[in] Exam item: assign C22A G40U to the correct category.
[out] lo

[in] Please report the category associated with U69G A87U , nothing else.
[out] hi

[in] Dear colleague, I would appreciate it if you could identify the bin for C30U G80C and reply at your convenience.
[out] med

[in] Form: Item = C24G C85A ; Class = ?
[out] lo

[in] Could you place A45C G50C in its proper category? Many thanks.
[out] med

[in] Returns: class label. Input: G25A A77U
[out] lo

[in] Looking at U12G C75G , which class would you pick?
[out] lo

[in] Pick a category. Item: U37A C84G
[out] lo

[in] Which category fits this record: U9G G53U
[out] hi

[in] Kindly identify the class of G82U A87C .
[out] med

[in] GET /class?item= G29C C85U
[out] lo

[in] Please let me know in which category the item A56G G73C belongs.
[out] med

[in] Which class is correct for the following variant? U23C G68U
[out] hi

[in] Lab note: sort G31A C58A into the matching self-cleavage band.
[out] med

[in] Please report the category associated with G28A U72C , nothing else.
[out] lo

[in] Into which category would you place C26G G35C ?
[out] lo

[in] Which self-cleavage band matches G68C G74U ?
[out] med

[in] Textbook exercise: identify the category of the variant given here, G1C U12G , according to its measured value.
[out] lo

[in] For U27A C49U , which self-cleavage bin applies?
[out] hi

[in] Band of C14U A42G ?
[out] hi

Values were extracted from the RNAGym collection of RNA variant scans (doi:10.7554/elife.80360).
